Molecular target: T1, human TGR1 (human, UniProt Q9GZQ4 1-415)
T1 construct: whole, on cells; Assayed as the membrane fraction of TGR1-expressing CHO cells (1.1 mg/mL protein); also called NMUR2; TGR1 receptor
T1 sequence (Q9GZQ4 whole entry): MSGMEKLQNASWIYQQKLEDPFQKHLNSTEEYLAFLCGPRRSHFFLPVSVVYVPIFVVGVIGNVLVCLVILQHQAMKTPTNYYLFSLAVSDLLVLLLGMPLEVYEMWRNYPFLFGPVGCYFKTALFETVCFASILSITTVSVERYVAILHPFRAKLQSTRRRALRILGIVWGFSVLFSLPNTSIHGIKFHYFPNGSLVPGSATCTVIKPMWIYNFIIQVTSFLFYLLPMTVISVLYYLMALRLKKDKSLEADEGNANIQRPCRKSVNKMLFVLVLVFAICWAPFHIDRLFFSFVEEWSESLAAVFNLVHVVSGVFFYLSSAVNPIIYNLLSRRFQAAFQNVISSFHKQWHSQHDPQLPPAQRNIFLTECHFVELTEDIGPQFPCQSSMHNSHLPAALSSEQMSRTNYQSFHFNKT
Assay: displacement of 125I-NMU8 from human TGR1 CHO membrane fraction; IC50 relative to NMU-8;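 also: competitive binding on TGR1-expressing CHO cell membranes, with compounds tested as DMSO dilution series and incubated for 70 min at 25 °C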
Non-standard residues stand in square brackets, D forms with d. No end group written: not given here. *: point of attachment. Acetyl(2-(piperazin-1-yl)) = O=C(CN1CCNCC1)*; PEG 30 kDa = methoxypolyethylene glycol 30k; NMeR = CN[C@@H](CCCNC(=N)N)C(=O)O; NMeL = CN[C@@H](CC(C)C)C(=O)O; NMeA = CN[C@@H](C)C(=O)O; βAla = NCCC(=O)O
property measured: IC50 ratio

Respectfully, I request IC50 ratio for each entry included below.
1. [βAla]YWLFR[NMeA]RN-NH2 (N-terminus assumed; SMILES CC(C)C[C@H](NC(=O)[C@H](Cc1c[nH]c2ccccc12)NC(=O)[C@H](Cc1ccc(O)cc1)NC(=O)CCN)C(=O)N[C@@H](Cc1ccccc1)C(=O)N[C@@H](CCCNC(=N)N)C(=O)N(C)[C@@H](C)C(=O)N[C@@H](CCCNC(=N)N)C(=O)N[C@@H](CC(N)=O)C(N)=O) [β-Ala0,Trp2,NMeAla6-NMU-8 (Compound 17)]
2. {PEG 30 kDa-Acetyl(2-(piperazin-1-yl))}-YFRFRPRN-NH2 [PEG30k-NpipAc-Arg3-NMU-8 (Compound J)]
3. [βAla]YYLFRPRN-NH2 (N-terminus assumed; SMILES CC(C)C[C@H](NC(=O)[C@H](Cc1ccc(O)cc1)NC(=O)[C@H](Cc1ccc(O)cc1)NC(=O)CCN)C(=O)N[C@@H](Cc1ccccc1)C(=O)N[C@@H](CCCNC(=N)N)C(=O)N1CCC[C@H]1C(=O)N[C@@H](CCCNC(=N)N)C(=O)N[C@@H](CC(N)=O)C(N)=O, also called β-Ala0,Try2-NMU-8) [β-Ala0,Tyr2-NMU-8 (Compound 5)]
4. [βAla]YF[NMeL]FRP[NMeR]N-NH2 (N-terminus assumed; SMILES CC(C)C[C@@H](C(=O)N[C@@H](Cc1ccccc1)C(=O)N[C@@H](CCCNC(=N)N)C(=O)N1CCC[C@H]1C(=O)N(C)[C@@H](CCCNC(=N)N)C(=O)N[C@@H](CC(N)=O)C(N)=O)N(C)C(=O)[C@H](Cc1ccccc1)NC(=O)[C@H](Cc1ccc(O)cc1)NC(=O)CCN) [β-Ala0,NMeLeu3,NMeArg7-NMU-8 (Compound 15)]

Resp:
["1.9 ratio to NMU-8 (=1)", "2.6 ratio to NMU-8 (=1)", "0.17 ratio to NMU-8 (=1)", "19 ratio to NMU-8 (=1)"]

Quick batch: IC50 ratio for everything below.
1. [βAla]PFLFRPRN-NH2 (N-terminus assumed; SMILES CC(C)C[C@H](NC(=O)[C@H](Cc1ccccc1)NC(=O)[C@@H]1CCCN1C(=O)CCN)C(=O)N[C@@H](Cc1ccccc1)C(=O)N[C@@H](CCCNC(=N)N)C(=O)N1CCC[C@H]1C(=O)N[C@@H](CCCNC(=N)N)C(=O)N[C@@H](CC(N)=O)C(N)=O) [β-Ala0,Pro1-NMU-8 (Compound 8)]
2. YFRFRPRN-NH2 (no linker) [Arg3-NMU-8 (Compound 9)]

Resp:
3.8 ratio to NMU-8 (=1)
1.9 ratio to NMU-8 (=1)
